Overview of recorded Binding of CRJA to looped/cyclic peptide (PEPSCAN-ELISA signal) for various sequences
test system: human monoclonal antibody CRJA; type: binding
Measurement Name: Binding of CRJA to looped/cyclic peptide (PEPSCAN-ELISA signal)

[[record]]
sequence_entry = "DVHNQVSGVDLGLPN"
system_tested = "human monoclonal antibody CRJA"
measured_value = 99

[[record]]
sequence_entry = "EAEDFVEVHLPDVHN"
system_tested = "human monoclonal antibody CRJA"
measured_value = 105

[[record]]
sequence_entry = "EVHLPDVHNQVSGVD"
system_tested = "human monoclonal antibody CRJA"
measured_value = 103


* * *

system: human monoclonal antibody CRJB; assay type: binding
Catalogue of sequences with associated Binding of CRJB to linear peptide (PEPSCAN-ELISA signal)
Measurement Name: Binding of CRJB to linear peptide (PEPSCAN-ELISA signal)

[[record]]
sequence_entry = "RGKRASKGSETCGFV"
system_tested = "human monoclonal antibody CRJB"
measured_value = 104

[[record]]
sequence_entry = "KMAGDPRYEESLHNP"
system_tested = "human monoclonal antibody CRJB"
measured_value = 102

[[record]]
sequence_entry = "IWMPENPRLGMSCDI"
system_tested = "human monoclonal antibody CRJB"
measured_value = 110

[[record]]
sequence_entry = "LSHLRKLVPGFGKAY"
system_tested = "human monoclonal antibody CRJB"
measured_value = 139

[[record]]
sequence_entry = "DQLVNLHDFRSDEIE"
system_tested = "human monoclonal antibody CRJB"
measured_value = 117

[[record]]
sequence_entry = "AVSSTYCSTNHDYTI"
system_tested = "human monoclonal antibody CRJB"
measured_value = 105

[[record]]
sequence_entry = "LDKLGPWSPIDIHHL"
system_tested = "human monoclonal antibody CRJB"
measured_value = 99

[[record]]
sequence_entry = "PSKGCLRVGGRCHPH"
system_tested = "human monoclonal antibody CRJB"
measured_value = 138

[[record]]
sequence_entry = "HLSCPNNLVVEDEGC"
system_tested = "human monoclonal antibody CRJB"
measured_value = 119

